# System: Phospholipase D2 (Homo sapiens) + Phospholipase D2 (Homo sapiens) (UniProt O14939+O14939)
# Sequence (O14939 whole entry, looked up): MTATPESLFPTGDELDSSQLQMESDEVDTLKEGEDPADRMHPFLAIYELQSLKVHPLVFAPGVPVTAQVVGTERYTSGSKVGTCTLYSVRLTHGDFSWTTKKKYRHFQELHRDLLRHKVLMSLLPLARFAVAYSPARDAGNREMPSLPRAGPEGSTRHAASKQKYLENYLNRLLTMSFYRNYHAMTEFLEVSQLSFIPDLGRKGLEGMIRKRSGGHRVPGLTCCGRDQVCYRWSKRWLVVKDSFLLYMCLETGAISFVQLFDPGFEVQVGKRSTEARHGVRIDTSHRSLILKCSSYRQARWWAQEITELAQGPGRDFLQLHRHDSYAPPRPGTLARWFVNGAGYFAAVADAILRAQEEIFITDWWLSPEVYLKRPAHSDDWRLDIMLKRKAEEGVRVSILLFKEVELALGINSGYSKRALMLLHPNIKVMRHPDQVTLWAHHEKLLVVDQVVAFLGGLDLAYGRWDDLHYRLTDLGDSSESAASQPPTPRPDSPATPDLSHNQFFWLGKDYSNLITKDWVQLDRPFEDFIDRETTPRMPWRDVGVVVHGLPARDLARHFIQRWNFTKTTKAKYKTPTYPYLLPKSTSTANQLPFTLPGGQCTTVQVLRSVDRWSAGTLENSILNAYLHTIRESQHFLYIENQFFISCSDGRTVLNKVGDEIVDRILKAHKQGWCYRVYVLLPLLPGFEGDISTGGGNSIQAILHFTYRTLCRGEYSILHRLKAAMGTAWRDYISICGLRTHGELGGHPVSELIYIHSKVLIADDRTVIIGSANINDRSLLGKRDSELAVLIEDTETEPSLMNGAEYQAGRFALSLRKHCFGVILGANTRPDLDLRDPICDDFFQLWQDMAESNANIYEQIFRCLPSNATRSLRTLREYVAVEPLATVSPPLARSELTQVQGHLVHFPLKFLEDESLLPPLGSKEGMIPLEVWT
# Sequence (O14939 whole entry, looked up): as above
# Experiment Description: PLD2 inhibition potency in cells, dose response, cell-based, Lib32, assay 2B (AID 624004)
# Recorded Conditions: cellular PLD2 activity assay
Readout Name: IC50

Some compounds with known IC50 results, for comparison:
Smiles Code: C[C@@H](CN1CCC2(CC1)C(=O)NCN2c1cccc(F)c1)NC(=O)c1ccc(Br)cc1
System: Phospholipase D2 (Homo sapiens) + Phospholipase D2 (Homo sapiens) (UniProt O14939+O14939)
Readout Name: IC50
Experimental Value: 84 nM

Smiles Code: O=C(NCCN1CCC2(CC1)C(=O)NCN2c1cccc(F)c1)c1ccc(F)cc1
System: Phospholipase D2 (Homo sapiens) + Phospholipase D2 (Homo sapiens) (UniProt O14939+O14939)
Readout Name: IC50
Experimental Value: 355 nM

Smiles Code: COc1cc(C(=O)NCCN2CCC3(CC2)C(=O)NCN3c2cccc(F)c2)cc(OC)c1OC
System: Phospholipase D2 (Homo sapiens) + Phospholipase D2 (Homo sapiens) (UniProt O14939+O14939)
Readout Name: IC50
Experimental Value: 1430 nM

Smiles Code: COc1cc(C(=O)N[C@@H](C)CN2CCC3(CC2)C(=O)NCN3c2cccc(F)c2)cc(OC)c1OC
System: Phospholipase D2 (Homo sapiens) + Phospholipase D2 (Homo sapiens) (UniProt O14939+O14939)
Readout Name: IC50
Experimental Value: 72 nM

Smiles Code: C[C@@H](CN1CCC2(CC1)C(=O)NCN2c1cccc(F)c1)NC(=O)c1cccc(F)c1
System: Phospholipase D2 (Homo sapiens) + Phospholipase D2 (Homo sapiens) (UniProt O14939+O14939)
Readout Name: IC50
Experimental Value: 1200 nM

(Q) What value of measured IC50 is listed for `O=C(NCCN1CCC2(CC1)C(=O)NCN2c1cccc(F)c1)c1ccc(Br)cc1` ?
(A) 200 nM

(Q) One more compound: `C[C@@H](CN1CCC2(CC1)C(=O)NCN2c1cccc(F)c1)NC(=O)c1ccc(F)cc1`
(A) 34 nM

(Q) One more compound: `C[C@@H](CN1CCC2(CC1)C(=O)NCN2c1cccc(F)c1)NC(=O)c1ccc(F)c(F)c1`
(A) 120 nM

(Q) One more compound: `C[C@@H](CN1CCC2(CC1)C(=O)NCN2c1cccc(F)c1)NC(=O)c1cccc([N+](=O)[O-])c1`
(A) 430 nM

(Q) One more compound: `C[C@@H](CN1CCC2(CC1)C(=O)NCN2c1cccc(F)c1)NC(=O)c1ccc(F)cc1F`
(A) 947 nM
